protocol: TROY pathway blockers in reporter cells – Q293 LMP1-TROYcd cells, NF-kB luciferase, uHTS, primary screen (AID 1347056)
conditionNotes: 4 h, at 10 µM, stronger effect = higher value
Among all 360,000 compounds or so, about 3,600 (1%) were called active. Shown is part of a subset that was picked to be rich in actives.
quantity: inhibition

* C/C(=C\c1ccccc1)C1NC(=O)c2c(sc3c2CCCC3)N1 (stereo not drawn) | 67.6% (active)
* COc1ccc(N2CCN(CCCNC(=O)C3CCN(S(=O)(=O)N4CCOCC4)CC3)CC2)cc1 | 91.5% (active)
* O=C(O)c1cccnc1Sc1ncnc2sc3c(c12)CCC3 | 10.5% (inactive)
* c1ccc(COc2nsnc2N2CCOCC2)cc1 | 11% (inactive)
* c1ccc(CSc2ncnc3c2sc2nc(N4CCOCC4)c4c(c23)CCCC4)cc1 | 60.3% (active)
* COc1ccc2nc(-c3ccccn3)ccc2c1 | 6.94% (inactive)

Which value of inhibition has been reported for `Nc1nc(Br)c2ccccc2c1-c1ccc(F)cc1` in the records?
14.8% (inactive)

Which value of inhibition has been reported for `O=C(NCCCN1CCN(Cc2ccccc2)CC1)C1CCN(S(=O)(=O)N2CCCC2)CC1` in the records?
-13% (inactive)

Which value of inhibition has been reported for `Cn1cnc2c1c(=O)n(Cc1ccccc1C#N)c(=O)n2C` in the records?
2.82% (inactive)

###

protocol: TROY pathway blockers in reporter cells – Q293 LMP1-TROYcd cells, NF-kB luciferase, uHTS, primary screen (AID 1347056)
conditionNotes: 4 h, at 10 µM
Among all 360,000 compounds or so, about 3,600 (1%) were called active.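 The calls were made as follows: active = compounds whose plate-normalised and pattern-corrected inhibition of the luciferase reporter signal at the single screening dose is 50% or more; inactive = the rest.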 The entries come from a sample that favours actives as a whole.
Give your call using only these classes: true for active, false for inactive

Reference set, count: 4
• COc1ccc(NC(=S)SC)cc1OC = true
• Cc1ccc(C(=O)Nc2ccc3c(c2)OCCO3)cc1S(=O)(=O)N1CCOCC1 = false
• O=C1CSC(=S)N1c1ccc(O)cc1 = true
• CN(C(=O)CN1C(=O)S/C(=C\c2ccccc2F)C1=O)C1CCS(=O)(=O)C1 (stereo unspecified) = false

What did this assay record as the result for `COc1ccc(S(=O)(=O)N2CCC(C(=O)OCC(=O)c3ccccc3)CC2)cc1[N+](=O)[O-]` ?
false

What did this assay record as the result for `O=C(Nc1ccc2c(c1)OCCO2)c1ccc(Cl)c(S(=O)(=O)N2CCCCC2)c1` ?
true

###

protocol: TROY pathway blockers in reporter cells – Q293 LMP1-TROYcd cells, NF-kB luciferase, uHTS, primary screen (AID 1347056)
conditionNotes: 4 h, at 10 µM
Among all 360,000 compounds or so, about 3,600 (1%) were called active.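 The calls were made as follows: active = compounds whose plate-normalised and pattern-corrected inhibition of the luciferase reporter signal at the single screening dose is 50% or more; inactive = the rest.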 The list comes from a sample in which actives are over-represented; it also holds close analogues and randomly drawn compounds.
Give your call using only these classes: Y (active), N (inactive)

Reference set, count: 6
• Cc1cccc(CC(=O)N2CCN=C2SCc2ccc([N+](=O)[O-])cc2)c1 = N
• COc1ccc2c(c1)C=CC1(O2)N(CCO)c2ccccc2C1(C)C (stereo unspecified) = Y
• CC(C)(CNC(=O)CNC(=O)C1CCCCC1)N1CCOCC1 = N
• c1ccc(CNc2ncnc3[nH]ncc23)cc1 = N
• CC(C)CNc1ncnc2c1cnn2Cc1ccc(Cl)cc1 = N
• CCN1CCN(c2ccc(S(=O)(=O)N3CCCCC3)cc2NC(=O)Cc2c(Cl)cccc2Cl)CC1 = N

What did this assay record as the result for `Clc1ccc(Cn2ncc3c(NCc4cccnc4)ncnc32)cc1` ?
Y

What did this assay record as the result for COc1ccc2c(c1)C(SCC(=O)NCc1ccccc1)CC(C)(C)O2 (stereo unspecified) ?
N

What did this assay record as the result for `CCCn1c(C)cc(C(=O)COC(=O)c2c(C)nn(-c3ccccc3)c2C)c1C` ?
N

What did this assay record as the result for `CCCNC(=O)C(=O)Nc1cc2c3c(c1)CCC(=O)N3CCC2` ?
N

What did this assay record as the result for CN1c2ccc([N+](=O)[O-])cc2C(C)(C)C12C=Cc1cc(C(=O)O)ccc1O2 (stereo unspecified) ?
N

###

protocol: TROY pathway blockers in reporter cells – Q293 LMP1-TROYcd cells, NF-kB luciferase, uHTS, primary screen (AID 1347056)
conditionNotes: 4 h, at 10 µM, stronger effect = higher value
Screen size: about 360,000 compounds; about 3,600 (1%) were called active. Many of the other results were omitted from the sample, so actives are more common in it than they were.
quantity: inhibition

// worked examples, inhibition included
• Cc1cccc(NC(=S)NCc2ccc3[nH]c4c(c3c2)CCCC4)c1 = 63.8% (active)
• C[C@@H]1CC[C@]2(O[C@@H](CCO)C[C@H](O)[C@H]2O)O1 = 0.26% (inactive)

Which value of inhibition has been reported for `OCC[C@H]1C[C@H](O)[C@@H](O)[C@]2(CCCCO2)O1` in the records?
-23.7% (inactive)

Which value of inhibition has been reported for `Cc1cc(C)cc(NC(=S)NCCc2c[nH]c3ccccc23)c1` in the records?
1.03% (inactive)

Which value of inhibition has been reported for `COC(=O)c1sccc1NS(=O)(=O)c1ccc(F)cc1F` in the records?
10.6% (inactive)

Which value of inhibition has been reported for `O=C(CN1C(=O)/C(=C/c2ccccc2F)Sc2ccccc21)NCc1cccnc1` in the records?
44.7% (inactive)

Which value of inhibition has been reported for `COC(=O)c1sccc1NC(=O)CSc1ccccc1NS(=O)(=O)c1cc(Cl)ccc1Cl` in the records?
51.4% (active)

###

protocol: TROY pathway blockers in reporter cells – Q293 LMP1-TROYcd cells, NF-kB luciferase, uHTS, primary screen (AID 1347056)
conditionNotes: 4 h, at 10 µM
The campaign covered roughly 360,000 compounds. About 3,600 (1%) were called active.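 The calls were made as follows: active = compounds whose plate-normalised and pattern-corrected inhibition of the luciferase reporter signal at the single screening dose is 50% or more; inactive = the rest.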 For the sample, actives were picked, then their nearest neighbours and some compounds at random.
Give your call using only these classes: active, inactive

What did this assay record as the result for `Cc1noc(C)c1COc1cccc(C(=O)Nc2cccnc2)c1` ?
inactive

What did this assay record as the result for `Cc1ccc(S(=O)(=O)N2CCC3(CC2)OCCO3)c(C)c1` ?
inactive

###

protocol: TROY pathway blockers in reporter cells – Q293 LMP1-TROYcd cells, NF-kB luciferase, uHTS, primary screen (AID 1347056)
conditionNotes: 4 h, at 10 µM, stronger effect = higher value
In all, about 360,000 compounds went through this assay and about 3,600 (1%) were called active. Shown is part of a subset that was picked to be rich in actives.
inhibition reference
Numbers only; they are read as %.

Which value of inhibition has been reported for `CSc1ncnc2c1ncn2CCCNCC1CCCCC1` in the records?
10.9

Which value of inhibition has been reported for `CCOC(=O)N1CCN(C(=O)c2ccc3c(=O)n(CCc4ccc(OC)c(OC)c4)c(=O)[nH]c3c2)CC1` in the records?
1.87

Which value of inhibition has been reported for Cc1noc(C)c1C(=O)NCC1COc2ccccc2O1 (stereo unspecified) in the records?
7.74

Which value of inhibition has been reported for `COC(=O)[C@@H]1C[C@H]2CC[C@H](O)C[C@H]2N1Cc1ccc(N2CCN(C)CC2)cc1` in the records?
4.5

###

protocol: TROY pathway blockers in reporter cells – Q293 LMP1-TROYcd cells, NF-kB luciferase, uHTS, primary screen (AID 1347056)
conditionNotes: 4 h, at 10 µM
Hit rate of the full screen: of about 360,000 compounds, about 3,600 (1%) were called active.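 The calls were made as follows: active = compounds whose plate-normalised and pattern-corrected inhibition of the luciferase reporter signal at the single screening dose is 50% or more; inactive = the rest.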 This is one part of a sample in which actives are shown more often than they occur.
Give your call using only these classes: active, inactive

What did this assay record as the result for `C=CCN(CC=C)S(=O)(=O)c1ccc(C(=O)Nc2nc3c(s2)CCc2ccccc2-3)cc1` ?
inactive

###

protocol: TROY pathway blockers in reporter cells – Q293 LMP1-TROYcd cells, NF-kB luciferase, uHTS, primary screen (AID 1347056)
conditionNotes: 4 h, at 10 µM, stronger effect = higher value
Among all 360,000 compounds or so, about 3,600 (1%) were called active. The entries come from a sample that favours actives as a whole.
quantity: inhibition (%)
Numbers only; they are read as %.

// worked examples, inhibition included
• Cc1ccsc1C(=O)OCC(=O)c1cc(C)n(CC2CCCO2)c1C (stereo not drawn) = 78.8
• CC(=O)Nc1cncc(-c2ccccc2CO)n1 = -15.3
• CC(=O)c1c(C)[nH]c(C(=O)COC(=O)c2cccc(S(=O)(=O)N(C)c3ccccc3)c2)c1C = 71
• COc1ccc(CCC(=O)OCC(=O)Nc2ccc(C)c(S(=O)(=O)N(C)C)c2)cc1 = 12.9
• O=C(NCCC1CCCCN1S(=O)(=O)c1cccs1)C(=O)Nc1ccc(F)cc1F (stereo not drawn) = 1.77

Which value of inhibition has been reported for `COC(=O)c1cc(=O)n(-c2c(Cl)cc(C(F)(F)F)cc2Cl)[nH]1` in the records?
6.27

Which value of inhibition has been reported for `COc1ccc(-n2ncc3c(N4CCCc5ccccc54)ncnc32)cc1` in the records?
62.1

Which value of inhibition has been reported for N#CC(Cc1cc2ccccc2n1S(=O)(=O)c1ccccc1)OCc1ccccc1 (stereo not drawn) in the records?
-2.35
